TGI values by entry
System: NCI-H23 lung
Assay: NCI tumour cell line growth inhibition, 48 h

Look up TGI of CC1=CC(=O)/C(=C/n2c(=S)[nH]c3ccccc32)C(=O)O1 and report it.
> 100 µM

Look up TGI of OC(c1ccccc1)(c1cccnc1)C(O)(c1ccccc1)c1cccnc1 (configuration not stated) and report it.
> 100 µM

Look up TGI of CCOC(=O)c1ccccc1-c1c2ccc(=[N+](C)C)cc-2oc2cc(N(C)C)ccc12 and report it.
11.9 µM

Look up TGI of COC(=O)[C@]12CC[C@@H](C)[C@H](C)[C@@H]1C1=CC[C@@H]3[C@@]4(C)CC(=O)[C@H](OC(=O)c5ccco5)[C@@]5(C)COC(=C45)C[C@@]3(C)[C@]1(C)CC2 and report it.
> 100 µM

Look up TGI of Cc1c(C(=O)O[C@H]2[C@@H]3[C@H](C)CC[C@H]3[C@]3(C)O[C@@]2(C2CCCCC2)C[C@H]3OC(=O)CO)ccc2ccccc12 and report it.
17.7 µM

Look up TGI of OC(COc1cccc2ccccc12)CN1CCN(c2ccccc2Cl)CC1 (configuration not stated) and report it.
29.8 µM

Look up TGI of Nc1c(C(=O)Nc2cccc(Br)c2)sc2nc3c(cc12)C(O)CCC3 (configuration not stated) and report it.
> 100 µM

Look up TGI of Nc1ccc(-c2nc3ccccc3s2)cc1Br and report it.
> 100 µM

Look up TGI of O=c1c2c3c(sc2n2c(-c4ccc(Br)cc4)nnc2n1Cc1ccccc1)CCCC3 and report it.
31.3 µM

Look up TGI of c1ccc(C2[C@@H]3CCCc4ccccc4C3=NN2c2ccccc2)cc1 (some centres not stated) and report it.
> 100 µM

Look up TGI of CC1(C)c2ccccc2C(O)C12CCC(=O)CC2 (configuration not stated) and report it.
> 100 µM

Look up TGI of Cc1nnc(-c2ccc(-c3nc4ccccc4o3)cc2)o1 and report it.
> 100 µM
